tested on: Coxsackievirus B5; assay: Antiviral activity against Coxsackievirus B5 infected in African green monkey Vero 76 cells after 3 days by plaque reduction assay; assay type: functional, organism-based; details: Enterovirus B, Vero, 72 h
observedProperty: EC50

{"smiles": "Cc1ccc(NCc2cn(-c3ccccc3)nc2-c2ccc(Br)cc2)cc1", "result": "> 100 µM"}
{"smiles": "Brc1ccc(-c2nn(-c3ccccc3)cc2CNc2ccccc2)cc1", "result": "> 52 µM"}
{"smiles": "Cc1ccc(-c2nn(-c3ccccc3)cc2CNc2ccc(Cl)cc2)cc1", "result": "> 100 µM"}
{"smiles": "Brc1ccc(NCc2cn(-c3ccccc3)nc2-c2ccc(Br)cc2)cc1", "result": "> 88 µM"}
{"smiles": "FC(F)(F)c1ccc(NCc2cn(-c3ccccc3)nc2-c2ccc(Br)cc2)cc1", "result": "> 28 µM"}
{"smiles": "Cc1ccc(NCc2cn(-c3ccccc3)nc2-c2ccc(C)cc2)cc1", "result": "> 100 µM"}
{"smiles": "Cc1ccc(-c2nn(-c3ccccc3)cc2CNc2ccc(Br)cc2)cc1", "result": "> 92 µM"}
{"smiles": "Cc1ccc(-c2nn(-c3ccccc3)cc2CNc2ccc(C(F)(F)F)cc2)cc1", "result": "> 45 µM"}
{"smiles": "FC(F)(F)c1ccc(NCc2cn(-c3ccccc3)nc2-c2ccc(Cl)cc2)cc1", "result": "> 18 µM"}
{"smiles": "Cc1ccc(-c2nn(-c3ccccc3)cc2CNc2ccccc2)cc1", "result": "> 52 µM"}
{"smiles": "Cc1cc(CCCOc2c(C)cc(-c3noc(C(F)(F)F)n3)cc2C)on1", "result": "0.005 µM"}
{"smiles": "Clc1ccc(NCc2cn(-c3ccccc3)nc2-c2ccc(Cl)cc2)cc1", "result": "> 90 µM"}
{"smiles": "FC(F)(F)c1ccc(-c2nn(-c3ccccc3)cc2CNc2ccc(Br)cc2)cc1", "result": "> 17 µM"}
{"smiles": "FC(F)(F)c1ccc(NCc2cn(-c3ccccc3)nc2-c2ccccc2)cc1", "result": "> 75 µM"}
{"smiles": "Clc1ccc(NCc2cn(-c3ccccc3)nc2-c2ccccc2)cc1", "result": "> 65 µM"}
{"smiles": "Brc1ccc(NCc2cn(-c3ccccc3)nc2-c2ccccc2)cc1", "result": "> 52 µM"}
{"smiles": "Cc1ccc(NCc2cn(-c3ccccc3)nc2-c2ccc(C(F)(F)F)cc2)cc1", "result": "> 82 µM"}
{"smiles": "Cc1ccc(NCc2cn(-c3ccccc3)nc2-c2ccccc2)cc1", "result": "> 100 µM"}
{"smiles": "FC(F)(F)c1ccc(NCc2cn(-c3ccccc3)nc2-c2ccc(C(F)(F)F)cc2)cc1", "result": "> 26 µM"}

###

tested on: Human alphaherpesvirus 1; assay: Antiviral activity against HSV1 infected in African green monkey Vero 76 cells after 3 days by plaque reduction assay; type: functional, organism-based; details: Human alphaherpesvirus 1, Vero, 72 h
observedProperty: EC50

{"compound": "Brc1ccc(NCc2cn(-c3ccccc3)nc2-c2ccc(Br)cc2)cc1", "observedProperty": "EC50", "result": "> 88 µM"}
{"compound": "Clc1ccc(NCc2cn(-c3ccccc3)nc2-c2ccc(Cl)cc2)cc1", "observedProperty": "EC50", "result": "> 90 µM"}
{"compound": "Cc1ccc(-c2nn(-c3ccccc3)cc2CNc2ccccc2)cc1", "observedProperty": "EC50", "result": "> 52 µM"}
{"compound": "FC(F)(F)c1ccc(NCc2cn(-c3ccccc3)nc2-c2ccc(C(F)(F)F)cc2)cc1", "observedProperty": "EC50", "result": "> 26 µM"}
{"compound": "Cc1ccc(NCc2cn(-c3ccccc3)nc2-c2ccccc2)cc1", "observedProperty": "EC50", "result": "> 100 µM"}
{"compound": "Cc1ccc(-c2nn(-c3ccccc3)cc2CNc2ccc(Br)cc2)cc1", "observedProperty": "EC50", "result": "> 92 µM"}
{"compound": "Brc1ccc(NCc2cn(-c3ccccc3)nc2-c2ccccc2)cc1", "observedProperty": "EC50", "result": "> 52 µM"}
{"compound": "Nc1nc2c(ncn2COCCO)c(=O)[nH]1 [ACYCLOVIR]", "observedProperty": "EC50", "result": "2.8 µM"}
{"compound": "Cc1ccc(NCc2cn(-c3ccccc3)nc2-c2ccc(Cl)cc2)cc1", "observedProperty": "EC50", "result": "> 100 µM"}
{"compound": "Cc1ccc(NCc2cn(-c3ccccc3)nc2-c2ccc(Br)cc2)cc1", "observedProperty": "EC50", "result": "> 100 µM"}
{"compound": "Cc1ccc(NCc2cn(-c3ccccc3)nc2-c2ccc(C)cc2)cc1", "observedProperty": "EC50", "result": "> 100 µM"}

###

tested on: Respiratory syncytial virus; assay: Antiviral activity against RSV infected in African green monkey Vero 76 cells after 5 days by plaque reduction assay; format: functional, organism-based; conditions: human respiratory syncytial virus, Vero, 120 h

{"smiles": "FC(F)(F)c1ccc(NCc2cn(-c3ccccc3)nc2-c2ccc(Br)cc2)cc1", "targetEntity": "Respiratory syncytial virus", "EC50": "> 28 µM"}
{"smiles": "FC(F)(F)c1ccc(NCc2cn(-c3ccccc3)nc2-c2ccc(Cl)cc2)cc1", "targetEntity": "Respiratory syncytial virus", "EC50": "> 18 µM"}
{"smiles": "Cc1ccc(-c2nn(-c3ccccc3)cc2CNc2ccc(C(F)(F)F)cc2)cc1", "targetEntity": "Respiratory syncytial virus", "EC50": "> 45 µM"}
{"smiles": "FC(F)(F)c1ccc(NCc2cn(-c3ccccc3)nc2-c2ccc(C(F)(F)F)cc2)cc1", "targetEntity": "Respiratory syncytial virus", "EC50": "> 26 µM"}
{"smiles": "FC(F)(F)c1ccc(-c2nn(-c3ccccc3)cc2CNc2ccc(Cl)cc2)cc1", "targetEntity": "Respiratory syncytial virus", "EC50": "> 10 µM"}
{"smiles": "FC(F)(F)c1ccc(NCc2cn(-c3ccccc3)nc2-c2ccccc2)cc1", "targetEntity": "Respiratory syncytial virus", "EC50": "> 17 µM"}
